- test target: Neu5Ac(a2-3)[GalNAc(b1-4)]Gal(b1-4)GlcNAc
- method notes: glycan array binding signal (z-score within array); higher = stronger binding
- applied conditions: glycan notation: IUPAC condensed, linker removed
Many of the other results were omitted from the sample, so the strongest signals are more common in it than they were.
measurement label: glycan array binding signal (z-score)
// return a plain number; no unit text

>  <binder>
AICL (Homo sapiens), Q92478 (protein) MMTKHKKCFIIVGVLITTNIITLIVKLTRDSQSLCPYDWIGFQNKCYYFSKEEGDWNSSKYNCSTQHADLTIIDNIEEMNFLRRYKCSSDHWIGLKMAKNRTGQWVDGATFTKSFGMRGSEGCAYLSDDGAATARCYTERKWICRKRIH

>  <glycan array binding signal (z-score)>
-0.3

$$$$

Now consider a different binder.
Which glycan array binding signal (z-score) value is on record for Gal 7 (Homo sapiens) (protein) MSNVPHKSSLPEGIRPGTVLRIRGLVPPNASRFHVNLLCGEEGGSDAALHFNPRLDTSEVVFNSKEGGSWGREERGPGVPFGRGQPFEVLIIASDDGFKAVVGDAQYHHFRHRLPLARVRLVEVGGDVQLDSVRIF ?
-0.248

These entries and their values trace back to the supplement of paper PMC8728848.
